Measured Target: HDAC5 (Homo sapiens, UniProt Q9UQL6)
Construct: Recombinant, full-length HDAC protein (BPS Biosciences) was incubated with fluorophore conjugated substrate
Sequence (Q9UQL6 whole entry): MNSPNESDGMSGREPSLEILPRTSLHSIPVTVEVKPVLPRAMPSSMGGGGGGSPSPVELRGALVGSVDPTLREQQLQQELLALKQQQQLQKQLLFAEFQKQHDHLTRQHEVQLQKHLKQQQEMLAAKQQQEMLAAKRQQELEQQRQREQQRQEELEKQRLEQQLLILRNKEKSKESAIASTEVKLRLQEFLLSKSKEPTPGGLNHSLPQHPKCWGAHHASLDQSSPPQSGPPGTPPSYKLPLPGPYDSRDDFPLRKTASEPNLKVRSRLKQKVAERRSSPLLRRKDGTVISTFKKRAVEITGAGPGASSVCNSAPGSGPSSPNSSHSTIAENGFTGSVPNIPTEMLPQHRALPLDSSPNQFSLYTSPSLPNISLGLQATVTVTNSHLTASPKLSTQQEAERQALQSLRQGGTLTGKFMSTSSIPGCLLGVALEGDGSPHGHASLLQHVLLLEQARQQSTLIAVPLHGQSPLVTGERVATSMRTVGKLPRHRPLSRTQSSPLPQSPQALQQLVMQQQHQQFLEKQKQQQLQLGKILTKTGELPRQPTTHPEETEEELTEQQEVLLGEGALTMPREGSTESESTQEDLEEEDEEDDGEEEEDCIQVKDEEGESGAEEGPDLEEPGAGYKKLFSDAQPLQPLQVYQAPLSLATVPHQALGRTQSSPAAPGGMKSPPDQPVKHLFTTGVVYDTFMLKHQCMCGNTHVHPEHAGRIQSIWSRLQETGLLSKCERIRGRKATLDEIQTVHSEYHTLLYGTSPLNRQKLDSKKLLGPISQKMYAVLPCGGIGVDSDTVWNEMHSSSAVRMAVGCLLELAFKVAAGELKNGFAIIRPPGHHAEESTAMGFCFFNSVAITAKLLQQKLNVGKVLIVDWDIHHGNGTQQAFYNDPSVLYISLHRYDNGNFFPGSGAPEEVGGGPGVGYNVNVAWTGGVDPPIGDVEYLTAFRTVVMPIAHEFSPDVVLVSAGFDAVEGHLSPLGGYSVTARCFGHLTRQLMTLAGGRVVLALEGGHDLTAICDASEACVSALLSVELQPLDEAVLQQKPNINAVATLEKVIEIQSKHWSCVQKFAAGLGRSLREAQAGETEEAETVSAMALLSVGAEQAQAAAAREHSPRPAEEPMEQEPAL
Assay Procedure: In vitro HDAC enzyme inhibition assay, HDAC5
Settings: recombinant full-length HDAC5, substrate MAZ1675 40 μM
pIC50: −log10 of the molar value.
Observation Type: pIC50

Before answering, review these 3 worked examples.
O=C(NO)c1ccc(Cn2c(=O)[nH]c3cc(Cl)ccc32)cc1 | 6.24
O=C(NO)c1ccc(Cn2cnc3cc(F)ccc32)cc1 | 5.99
O=C(NO)c1ccc(Cn2nnc3cc(Cl)ccc32)cc1 | 5.84

a: O=C(NO)c1ccc(Cn2c(=O)[nH]c3ccccc32)cc1
b: O=C(NO)c1ccc(Cn2c(C(F)(F)F)nc3ccccc32)cc1
c: O=C(NO)c1ccc(Cn2c(=O)[nH]c3cc(Br)ccc32)cc1
d: O=C(NO)c1ccc(Cn2c(C(F)(F)F)nc3cc(F)ccc32)cc1
Req: Sort low-to-high on pIC50, please. Answer format: the labels, in the requested order.
Resp: a, c, b, d
(a: 5.77, c: 6.09, b: 6.35, d: 6.55)

====

Measured Target: HDAC4 (Homo sapiens)
Construct: Recombinant, full-length HDAC protein (BPS Biosciences) was incubated with fluorophore conjugated substrate
Sequence (P56524 whole entry): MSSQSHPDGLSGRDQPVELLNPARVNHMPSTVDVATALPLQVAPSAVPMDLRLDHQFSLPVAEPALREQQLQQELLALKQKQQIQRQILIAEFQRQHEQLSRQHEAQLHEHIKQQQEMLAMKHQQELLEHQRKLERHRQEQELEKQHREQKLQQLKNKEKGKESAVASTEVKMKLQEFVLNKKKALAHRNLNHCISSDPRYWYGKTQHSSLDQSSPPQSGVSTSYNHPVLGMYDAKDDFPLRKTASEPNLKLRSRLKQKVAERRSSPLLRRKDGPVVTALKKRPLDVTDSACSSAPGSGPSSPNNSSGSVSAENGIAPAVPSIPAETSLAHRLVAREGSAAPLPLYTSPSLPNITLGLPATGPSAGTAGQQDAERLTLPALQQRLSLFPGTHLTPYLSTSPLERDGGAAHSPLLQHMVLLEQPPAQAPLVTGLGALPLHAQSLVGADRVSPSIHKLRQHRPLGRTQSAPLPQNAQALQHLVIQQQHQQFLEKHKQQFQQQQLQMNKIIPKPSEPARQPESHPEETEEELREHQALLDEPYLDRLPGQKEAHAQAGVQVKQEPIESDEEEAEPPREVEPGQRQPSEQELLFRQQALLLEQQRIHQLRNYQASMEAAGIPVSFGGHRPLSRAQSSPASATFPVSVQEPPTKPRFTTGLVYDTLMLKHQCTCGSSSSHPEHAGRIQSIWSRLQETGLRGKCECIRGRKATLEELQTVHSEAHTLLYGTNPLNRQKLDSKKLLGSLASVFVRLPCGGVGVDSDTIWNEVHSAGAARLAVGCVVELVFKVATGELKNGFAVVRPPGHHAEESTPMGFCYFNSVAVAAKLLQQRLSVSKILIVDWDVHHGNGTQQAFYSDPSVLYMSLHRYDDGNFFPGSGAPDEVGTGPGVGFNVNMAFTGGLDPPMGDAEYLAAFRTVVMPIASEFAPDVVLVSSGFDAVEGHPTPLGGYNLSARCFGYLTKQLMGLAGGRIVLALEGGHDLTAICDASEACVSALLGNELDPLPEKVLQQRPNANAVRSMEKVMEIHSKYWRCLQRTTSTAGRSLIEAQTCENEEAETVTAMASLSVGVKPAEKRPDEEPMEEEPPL
Assay Procedure: In vitro HDAC enzyme inhibition assay, HDAC4
Settings: recombinant full-length HDAC4, substrate MAZ1675 10 μM
Observation Type: IC50 (µM)

Before answering, review these 3 worked examples.
COc1ccc2c(c1)nc(C(F)(F)F)n2Cc1ccc(C(=O)NO)cc1 [A6] | 0.946
O=C(NO)c1ccc(Cn2cnc3cc(Br)ccc32)cc1 [A11] | 1.55
COc1ccc2c(c1)ncn2Cc1ccc(C(=O)NO)cc1 [A12] | 2.69

I: O=C(NO)c1ccc(Cn2c(=O)[nH]c3cc(Cl)ccc32)cc1 [B4]
II: O=C(NO)c1ccc(Cn2c(=O)[nH]c3cc(C(F)(F)F)ccc32)cc1 [B6]
Req: Which has the smaller recorded IC50, I or II ? In your reply, give the label of the chosen option.
Resp: I
(I: 0.639 µM, II: 1.42 µM)

====

Measured Target: HDAC5 (Homo sapiens, UniProt Q9UQL6)
Construct: Recombinant, full-length HDAC protein (BPS Biosciences) was incubated with fluorophore conjugated substrate
Assay Procedure: In vitro HDAC enzyme inhibition assay, HDAC5
Settings: recombinant full-length HDAC5, substrate MAZ1675 40 μM
pIC50: −log10 of the molar value.
Observation Type: pIC50

Before answering, review these 6 worked examples.
O=C(NO)c1ccc(Cn2c(C(F)(F)F)nc3cc(Cl)ccc32)cc1 | 6.55
COc1ccc2c(c1)ncn2Cc1ccc(C(=O)NO)cc1 | 5.77
Cc1ccc2c(c1)[nH]c(=O)n2Cc1ccc(C(=O)NO)cc1 | 6.18
Cc1ccc2c(c1)ncn2Cc1ccc(C(=O)NO)cc1 | 5.85
O=C(NO)c1ccc(Cn2c(=O)[nH]c3cc(F)ccc32)cc1 | 5.96
Cc1ccc2c(c1)nc(C(F)(F)F)n2Cc1ccc(C(=O)NO)cc1 | 6.79

a: COc1ccc2c(c1)nc(C(F)(F)F)n2Cc1ccc(C(=O)NO)cc1
b: O=C(NO)c1ccc(Cn2nnc3cc(Br)ccc32)cc1
c: O=C(NO)c1ccc(Cn2cnc3cc(Br)ccc32)cc1
d: O=C(NO)c1ccc(Cn2c(C(F)(F)F)nc3cc(Br)ccc32)cc1
Req: Sort low-to-high on pIC50, please. Answer format: the labels, in the requested order.
Resp: b, c, a, d
